System: HCT116
Settings: 72 h; ICRF193 200 nM
Structures can show the parent of a compound that is named as a salt.
I'd appreciate it if you could supply IC50 cell viability values for the items below.

For every record below, what is its IC50 cell viability?
1. COC(c1ccccc1)(c1ccccc1)[C@H](Oc1nc(C)cc(C)n1)C(=O)O
2. Cc1cc(O)ccc1C(C)(C)C

Reply:
["> 45.8 µM", "> 45.8 µM"]

State the recorded IC50 cell viability for every item in the following list.
1. CN(C(=O)CN(CCO)CC(=O)N(C)C(C)(C)Cc1ccccc1)C(C)(C)Cc1ccccc1
2. NCCc1ccc(O)c(O)c1 [Dopamine hydrochloride]
3. CCCCCCCCCCCC(=O)[O][Sn]([CH2]CCC)([CH2]CCC)[O]C(=O)CCCCCCCCCCC [Dibutyltin dilaurate]
4. O=P1(NCCCl)OCCCN1CCCl (configuration not stated) [Ifomide]
5. CC(=O)Nc1ccc(O)cc1
6. O=C1CN(/N=C/c2ccc([N+](=O)[O-])o2)C(=O)N1

Reply:
["13 µM", "> 45.8 µM", "> 45.8 µM", "> 45.8 µM", "> 45.8 µM", "> 45.8 µM"]

---

Tested on: HCT116
Assay: efficacy (maximum % inhibition of viability vs DMSO); higher = more cytotoxic
Conditions: 72 h; ICRF193 200 nM
Structures can show the parent of a compound that is named as a salt.
Could you label it y if measured efficacy is 80% or higher, and n otherwise?

CC(C)C[C@H]1C(=O)N2CCC[C@H]2[C@]2(O)O[C@](NC(=O)[C@@H]3C=C4c5cccc6[nH]c(Br)c(c56)C[C@H]4N(C)C3)(C(C)C)C(=O)N12 [BROMOCRIPTINE]: n
O=C(Nc1ccc([N+](=O)[O-])cc1Cl)c1cc(Cl)ccc1O [Niclosamide]: y
CCCC[C@H](C)C[C@H](O)/C=C/[C@H]1[C@H](O)CC(=O)[C@@H]1CCCC/C=C/C(=O)O [Limaprost]: n
NS(=O)(=O)c1ccc(-n2nc(C(F)(F)F)cc2-c2ccc(F)cc2)cc1 [Mavacoxib]: n
CN1CCN(CCCN2c3ccccc3Sc3ccc(S(=O)(=O)N(C)C)cc32)CC1 [Thioproperazine dimethanesulfonate]: n

Query: Please tell me: is the molecule Nc1nc(=S)c2[nH]cnc2[nH]1 [6-Thioguanine] at or over 80% in terms of efficacy?
Reply: y

Query: Record CN(C)CCCN1c2ccccc2CCc2ccc(Cl)cc21 [Clomipramine hydrochloride] ; criterion: efficacy no lower than 80%. Met?
Reply: y

Query: // inclusive: efficacy at least 80%? input: CCc1nc(N)nc(N)c1-c1ccc(Cl)cc1 [Pyrimethamine]
Reply: y

---

Tested on: HCT116
Details: 72 h; ICRF193 0 nM
Structures can show the parent of a compound that is named as a salt.
Please respond with reported IC50 cell viability for every item in the list.

Here is how some compounds turned out for IC50 cell viability.
Cc1onc(-c2ccccc2)c1-c1ccc(S(N)(=O)=O)cc1 [Valdecoxib]: > 45.8 µM
C[C@]12C=CC(=O)C=C1CC[C@@H]1[C@@H]2C(=O)C[C@@]2(C)[C@H]1CC[C@]2(O)C(=O)CO [Prednisone]: > 45.8 µM
CCOC(=O)N[C@@H]1CC[C@@H]2[C@@H](C1)C[C@H]1C(=O)O[C@H](C)[C@H]1[C@H]2/C=C/c1ccc(-c2cccc(F)c2)cn1 [Vorapaxar Sulfate]: > 45.8 µM
C1CCC(C(CC2CCCCN2)C2CCCCC2)CC1 (centres undefined) [Perhexiline]: 18.3 µM
Cn1c(=O)c2[nH]cnc2n(C)c1=O [Theophyllamine]: > 45.8 µM
COC([CH2][Hg+])CNC(=O)c1ccccc1OCC(=O)O.[OH-] (centres undefined) [Mersalyl acid]: > 45.8 µM
O=P(O)(O)OC(Cn1cncn1)(Cn1cncn1)c1ccc(F)cc1F [Fosfluconazole]: > 45.8 µM
CC(C)NCC(O)COc1cccc2[nH]ccc12 (centres undefined) [Pindolol]: > 45.8 µM

Query: // returns reported IC50 cell viability for input NCCNc1ccc(NCCN)c2c1C(=O)c1ccncc1C2=O [Pixantronemaleate]
Reply: 29.1 µM
